- Test system: HT29 colon
- measurement_description: NCI-60 one-dose screen, 48 h (100 = growth as untreated, 0 = no growth, -100 = all killed)
- cond: 10 µM
The panel holds about 83,000 compounds, 20% with a hit somewhere; the sample as a whole holds those more often.
Use 90% as the dividing line for growth, with the line itself on the Y side and lower values as N.

query: Quick check: does CCCCN(CCCC)C(=O)[C@H](CC)[C@@H]1CC[C@@H](C)[C@@H]([C@H](C)[C@@H](O)[C@@H](C)C(=O)[C@H](CC)C2O[C@]3(C=C[C@@H](O)[C@]4(CC[C@@](C)([C@H]5CC[C@](O)(CC)[C@H](C)O5)O4)O3)[C@H](C)C[C@@H]2C)O1 (some centres not stated) have growth greater than or equal to 90%?
result: N

query: Then this compound: CCCCN(CCCC)C(=O)[C@H](CC)[C@@H]1CC[C@@H](C)[C@@H]([C@H](C)[C@@H](O)[C@@H](C)C(=O)[C@H](CC)C2O[C@]3(C=CC(=O)[C@]4(CC[C@@](C)([C@H]5CC[C@](O)(CC)[C@H](C)O5)O4)O3)[C@H](C)C[C@@H]2C)O1 (some centres not stated)
result: N

query: Then this compound: CC1OC2CC(=O)OC2C2=C1C(=O)c1c(O)c3c(c(O)c1C2=O)C1CC(O)C3(O)C(C)O1 (configuration not stated)
result: N

query: Then this compound: "CC(=O)Nc1ccc(CC[C@H]2CCC/C=C/[C@@H]3C[C@H](O)C[C@H]3[C@H](O)/C=C/C(=O)O2)cc1"
result: N

query: Then this compound: "S=C(NCc1ccccc1)NCc1ccccc1"
result: Y

query: Then this compound: "CC(=O)N[C@H](C(=O)N[C@@H](CCCNC(=N)N)C(=O)N[C@@H](CCCCN)C(=O)N[C@@H](CCCNC(=N)N)C(=O)N[C@]1(C)CCC/C=C\CCC[C@@](C)(C(=O)N[C@@H](CC(C)C)C(=O)N[C@@H](CC(C)C)C(=O)N[C@@H](CCC(N)=O)C(=O)N[C@@H](CCC(=O)O)C(=O)N[C@@H](CCCNC(=N)N)C(=O)N[C@@H](CCC(=O)O)C(=O)N[C@@H](CC(C)C)C(=O)N[C@H](C(=O)N[C@@H](CCC(=O)O)C(N)=O)C(C)C)NC(=O)[C@H](CCCNC(=N)N)NC(=O)[C@H](CC(C)C)NC1=O)C(C)C"
result: Y

query: Then this compound: "O=C1C=C(Nc2cccc(Br)c2)c2ccccc2C1=O"
result: Y

query: Then this compound: "O=C1/C=C/[C@@H](O)[C@@H]2C[C@@H](O)C[C@H]2/C=C/CCC[C@H](CCc2ccc(NC(=S)Nc3ccc4c(c3)C(=O)OC43c4ccc(O)cc4Oc4cc(O)ccc43)cc2)O1"
result: N

query: Then this compound: "CCn1cc(C(=O)O)c(=O)c2cc(F)c(N3CCNCC3)cc21"
result: Y

query: Then this compound: CC(=O)[C@@]12O[C@](C)(c3ccccc3)O[C@@H]1CC1C3CCC4=CC(=O)CC[C@]4(C)C3CC[C@@]12C (some centres not stated)
result: N

query: Then this compound: "COc1ccc(CCN2CCC(Nc3nc4ccccc4n3Cc3ccc(F)cc3)CC2)cc1"
result: N

query: Then this compound: "c1ccc(CSc2ncccc2-c2nnc(SCCN3CCOCC3)o2)cc1"
result: Y

query: Then this compound: "c1cnc2[nH]cc(-c3nc(-c4ccsc4)cs3)c2c1"
result: Y

query: Then this compound: "COc1ccc(C(=O)c2ccccc2CN2C(=O)c3ccccc3C2=O)cc1"
result: Y

query: Then this compound: "Cc1cn(-c2cccc(NC(=O)c3ccc(C)c(Nc4nccc(-c5cccnc5)n4)c3)c2)cn1"
result: N

query: Then this compound: "CCOC(=O)c1cc(C(=O)c2cc(OC)cc(OC)c2)n2nc(C)ccc12"
result: N

query: Then this compound: "CCCCC/C=C/C/C=C/CCCCCCCC1=NC(C)(C)CN1C(C)C"
result: N

query: Then this compound: "Cc1c2c[n+](C(C)C)ccc2c(C)c2c1[nH]c1ccccc12"
result: N

###

- System: PC-3 prostate
- measurement_description: NCI-60 one-dose screen, 48 h (100 = growth as untreated, 0 = no growth, -100 = all killed)
- cond: 10 µM
The panel holds about 83,000 compounds, 20% with a hit somewhere; the sample as a whole holds those more often.
Strictly below 90% in growth: fulfilled. Otherwise: not fulfilled.

query: State whether 90% exceeds growth recorded for "CN1CCN(CC(=O)Nc2cccc(-n3cc(-c4ccncc4)c(-c4ccc(Cl)c(O)c4)n3)c2)CC1" .
result: fulfilled

query: Then this compound: "COc1ccc(/C=C/C(=O)C(=O)/C=C/c2ccc(OC)c(OC)c2)cc1OC"
result: fulfilled

query: Then this compound: "CN(C)c1nc(N)c2nccnc2n1"
result: not fulfilled

query: Then this compound: "C=C(C)[C@@H]1CC[C@]2(COCCC#N)CC[C@]3(C)[C@H](CC[C@@H]4[C@@]5(C)Cc6c([nH]c7ccccc67)C(C)(C)[C@@H]5CC[C@]43C)[C@@H]12"
result: not fulfilled

###

- System: SK-MEL-2 melanoma
- measurement_description: NCI-60 one-dose screen, 48 h (100 = growth as untreated, 0 = no growth, -100 = all killed)
- cond: 10 µM
About 83,000 compounds went through this panel and 20% of them were active in at least one assay; those are over-represented in the sample as a whole.
Strictly below 90% in growth: T. Otherwise: F.

query: State whether 90% exceeds growth recorded for "COc1cc(/C=C/c2cc(/C=C/c3ccc(O)c(OC)c3)nc(N)n2)ccc1O" .
result: T

query: Then this compound: COC(=O)C1OC1c1cc([N+](=O)[O-])ccc1OC (stereo not given)
result: F

query: Then this compound: "CCN(CC)CCOc1cccc2c1C(=O)c1cccc(OCCN(CC)CC)c1C2=O"
result: T

query: Then this compound: "C=CCn1c(SCC(=O)Nc2ccc(C(=O)/C=C/c3cc(OC)c(OC)c(OC)c3)cc2)nnc1-c1cc(-c2ccc(Cl)cc2)nc2ccccc12"
result: F

###

- System: COLO 205 colon
- measurement_description: NCI-60 one-dose screen, 48 h
- cond: 10 µM
About 83,000 compounds went through this panel and 20% of them were active in at least one assay; those are over-represented in the sample as a whole. The source made the active and inactive calls. The calls were made as follows: active = growth percent below 10; inactive = the rest.
Select the matching outcome among yes (active), no (inactive)

query: Recorded call for "O=C(CSc1nccc(Nc2cccc3ccccc23)n1)c1ccc(Cl)cc1" ?
result: no

query: Then this compound: C/C(=C/CCC(C)[C@@H]1CC[C@]2(C)C3=C(CC[C@@]12C)[C@@]1(C)CCC(=O)C(C)(C)[C@@H]1CC3)C(=O)O (stereo partly specified)
result: yes

query: Then this compound: "CCN(CC)CCNc1ccc(C)c2sc3cc(Cl)ccc3c(=O)c12"
result: yes

query: Then this compound: "COc1ccc(-c2nnc(SCC(=O)Nc3ccc(C(=O)/C=C/c4ccccc4)cc3)n2-c2ccccc2)cc1OC"
result: no

query: Then this compound: "Clc1nc2ccc(Br)cc2cc1-c1nc2ccccc2[nH]1"
result: no

query: Then this compound: "C/C(=N\O)c1ccc(NC(=O)CSc2nnc(-c3ccccc3)n2-c2ccccc2)cc1"
result: no

query: Then this compound: "COc1ccc(-c2cc(-c3ccccc3)nc(SCCCC(=O)NO)n2)cc1"
result: yes

query: Then this compound: "COc1ccc(-c2cc(-c3ccc(Cl)cc3)nc(SCCCC(=O)NO)n2)cc1OC"
result: yes

query: Then this compound: "Cc1cn(-c2cc(F)cc(NC(=O)c3ccc(C)c(Nc4nccc(-c5cccnc5)n4)c3)c2)cn1"
result: no

query: Then this compound: "COC(=O)CC[C@@H](C)[C@H]1CC[C@H]2[C@@H]3CC[C@@H]4C[C@H](O)CC[C@]4(C)[C@H]3C[C@H](O)[C@]12C"
result: no

query: Then this compound: "COc1cc(N)c2ncccc2c1SC"
result: no

query: Then this compound: "O=C1/C(=C/c2ccc([N+](=O)[O-])s2)Oc2cc(Cl)ccc21"
result: yes

query: Then this compound: "CN1C(C(=O)Nc2ccccn2)=C(O)c2sc(Cl)cc2S1(=O)=O"
result: no

query: Then this compound: "N#Cc1c(-c2ccc(Cl)cc2)csc1NC(=O)Nc1ccc(Cl)c(C(F)(F)F)c1"
result: yes

query: Then this compound: "Cc1cc(=O)n2nnc3cc(C(F)(F)F)ccc3n12"
result: no

query: Then this compound: "COc1ccc(-c2nn(-c3cccc(Cl)c3)cc2C=C(C#N)C#N)cc1"
result: yes

query: Then this compound: "CCN(CC)CCN1c2nc3ccccc3cc2Sc2cc3ccccc3nc21"
result: yes

query: Then this compound: "CCN1CCN(CCC(=O)Nc2cccc(-n3cc(-c4ccncc4)c(-c4ccc(Cl)c(OC)c4)n3)c2)CC1"
result: yes

query: Then this compound: "COc1ccc(-c2cc(-c3ccc(OC)c(OC)c3)nc(SCCCC(=O)NO)n2)cc1"
result: yes

query: Then this compound: "CN1CCN(C2=Nc3ccccc3Oc3ccc(Cl)cc32)CC1"
result: no

query: Then this compound: COc1ccc(/C=C2\CCCC3=C2N=C2SC(C)=CN2C3c2ccc(OC)cc2)cc1 (stereo unspecified)
result: no

query: Then this compound: "CN(C)c1ccc(/C=N/NC(=O)c2ccccc2Nc2cccc(C(F)(F)F)c2)cc1"
result: no

query: Then this compound: "Cc1noc(C)c1CSc1ccccc1C(=O)N1CCN(c2cccc(C(F)(F)F)c2)CC1"
result: no

query: Then this compound: NC1=NC(c2ccccc2)C2=C(N1)/C(=C/c1ccccc1)CCC2 (stereo unspecified)
result: no

query: Then this compound: "COc1cc(NC(=O)C2=C(N3CCOCC3)/C(=C/c3ccc(Cl)cc3)CC2)cc(OC)c1OC"
result: no

query: Then this compound: "CC(C)(C)OC(=O)CN1CCc2c(sc3ncnc(N/N=C/c4cccc5ccccc45)c23)C1"
result: no

query: Then this compound: "COc1cccc(CNc2cccc3cn[nH]c23)c1O"
result: no

query: Then this compound: Cc1ccc(NCCN(C)CC(C)O)c2c(=O)c3ccc(Cl)cc3sc12 (stereo unspecified)
result: yes

query: Then this compound: "C[C@@H](C[C@H](CCO)c1ccccc1)c1ccc2ccccc2c1"
result: yes

query: Then this compound: "COc1cc2cc(Oc3ccc(NC(=O)c4ccc(Cl)c(C(F)(F)F)c4)cc3)c(C)nc2cc1OC"
result: no

query: Then this compound: "O=C(Nc1ccccc1)Nc1ncnc2c1ncn2-c1ccccc1"
result: no

query: Then this compound: "CN1CCc2c(sc3nc4n(-c5ccc(Cl)cc5)c(=O)[nH]n4c(=O)c23)C1"
result: no

query: Then this compound: "CC(C)(C)OC(=O)N1CCc2c(sc3ncnc(N/N=C/c4ccc(Br)cc4)c23)C1"
result: no

query: Then this compound: "NS(=O)(=O)c1ccc(Br)cc1"
result: no

query: Then this compound: "CCOC(=O)CSc1nc(-c2cc(OC)ccc2OC)cc(-c2ccc(OC)cc2)c1C#N"
result: no

query: Then this compound: CC(C)=CCC/C(C)=C/CC/C(C)=C/CC/C=C(\C)CC/C=C(\C)CCC(=O)Nc1ccn(C2OC(CO)C(O)C2(F)F)c(=O)n1 (stereo unspecified)
result: no

query: Then this compound: "COc1cc(/C=C/c2cc(/C=C/c3ccc(O)c(OC)c3)nc(N)n2)ccc1O"
result: yes

query: Then this compound: "O=C1c2ccccc2C(=O)c2c1ccc(C(Br)Br)c2Cl"
result: yes

query: Then this compound: "NS(=O)(=O)Oc1ccc(NC(=O)C2CCCCCC2)cc1"
result: no

query: Then this compound: "O=[N+]([O-])c1ccc(NCSc2ccc(Cl)cc2)cc1"
result: no

query: Then this compound: Cc1c(O)c(=O)ccn1C1CCC(CC2CCC(n3ccc(=O)c(O)c3C)CC2)CC1 (stereo unspecified)
result: no

Hey, just so you know, these numbers are from PubChem BioAssay (NCI).
